Species on record: Homo sapiens
Test description: Compound tested for hallucinogenic activity in humans was reported; Value reported in (A)= Mescaline units
Format: functional
For each record, write down the corresponding Activity.

The following compounds have reported results that may help.
Compound: COc1cc(CCN)cc(OC)c1OC(C)C
Observed measurement: 5

Compound: COc1cc(CCN)c(OC)cc1Br
Observed measurement: 16

Compound: COc1ccc(CC(C)N)cc1 (centres undefined) [PARA-METHOXYAMPHETAMINE]
Observed measurement: 5

Compound: CCSc1c(OC)cc(CCN)cc1OC
Observed measurement: 12

Compound: CCc1cc(OC)c(CC(C)N)cc1SC (centres undefined)
Observed measurement: 15

Go through the items and report each one's Activity.
1. COc1cc(CC(C)N)c(OC)c(C)c1C (centres undefined)
2. CCSc1cc(OC)c(CCNO)cc1OC
3. CCCSc1cc(OC)c(CCN)cc1OC
4. COc1c(CC(C)N)ccc2c1OCO2 (centres undefined)

**A:**
12
22
15
6
